System: Wnt5a (protein binding on small-molecule microarray)
TEST METHOD NOTES: Wnt5a binders on small-molecule microarray, primary screen, biophysical, 635/667 nm fluorescence (AID 1142);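 further: fluorescence read at 667 nm with signal to noise per printed feature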
ASSAY SETUP: 635 nm fluorescence, higher = more signal
Threshold check on composite z-score: at or above 0.2 gives Satisfied, strictly below gives Not satisfied.

For orientation, consider the following solved cases.
> print(dat)
                                 cpd.smiles    label.value
1    CC(C)=NOCc1ccc(-c2cc(-c3ccccc3)no2)cc1  Not satisfied
2  COc1ccc(O[C@H]2C=C[C@@H](c3ccccc3)O[C@@H]2CON=C[C@@H](C)[C@H](OCc2ccccc2)C(C)C)cc1  Not satisfied
3  O=C1[C@H]2[C@H]3[C@H](O)[C@H](O)CC(=NOCc4ccccc4)[C@H]3CC[C@H]2C(=O)N1c1cccc(Oc2ccccc2)c1      Satisfied
4  [N-]=[N+]=NCc1ccccc1[C@@H]1OC(c2ccc(OCCCO)cc2)=N[C@]1(Cc1ccccc1)C(=O)N1CCOCC1      Satisfied

Incoming: Tell me whether composite z-score is at least 0.2 here: CO[C@@H]1COC(=O)CC=C[C@@H](C)COC(=O)[C@H](COCc2ccccc2)NC(=O)CC=C[C@H]1C
Outgoing: Not satisfied

Incoming: For this compound, is measured composite z-score 0.2 or higher? CC(CCN1CCc2nc(-c3ccccc3)c(-c3ccccc3)cc2C1)=NO[C@@H](C)c1cn([C@H](CO)Cc2ccccc2)nn1
Outgoing: Not satisfied

Incoming: Tell me whether composite z-score is at least 0.2 here: O=C1O[C@@H](c2ccccc2)[C@@H](c2ccccc2)N2[C@@H](c3ccccc3OCCO)[C@]3(C(=O)Nc4ccc(C#CCCO)cc43)[C@@H](C(=O)O)[C@H]12
Outgoing: Satisfied

* * *

Documented composite z-score across a set of molecules
SYSTEM: Carbonic anhydrase 2 (Homo sapiens)
TEST METHOD NOTES: CAII small-molecule binders, profiling panel, biochemical, small-molecule microarray, Alexa647-labelled CAII (AID 1122)
ASSAY SETUP: CAII-A647 binding fluorescence, higher = more signal
// no unit, no text: just the number

> print(dat)
                                   molecule     property.label  observed.value
1  O[C@@H](Cc1ccccc1)[C@H]1C2C=CCCC(c3ccccc3)=C2CN1Cc1cccc(Cl)c1 (stereo partly specified)  composite z-score           0.371
2  C[C@H]1CC[C@@H](C(=O)O)N[C@@H]1c1ccc(C#CCN(C)C)cc1  composite z-score            0.37

The value of composite z-score measured for the molecule CCOC(=O)NN=C1C[C@@H](O)[C@@H](O)[C@@H]2[C@@H]3C(=O)N(C(C)(C)C)C(=O)[C@@H]3CC[C@@H]12 turned out to be -1.23

Per the record, CC(C)CON=C1[C@H]2CCn3c(=O)n(-c4ccccc4)c(=O)n3[C@H]2[C@H](O)[C@@H]2O[C@H]12 has composite z-score of -0.0152

// composite z-score value for CC(=O)OC[C@H]1O[C@H](CCON=C(C)CCC(=O)OC[C@H]2O[C@H](C#Cc3ccccc3)C=C[C@@H]2Oc2ccc(C)cc2)C=C[C@@H]1OC(C)=O : -0.085

composite z-score recorded for this molecule, CC(CCN1CCCCc2nc(C)c(C)cc21)=NOC(C)CN1CCCc2nc(C)c(C)cc21 (stereo unspecified) , is 0.533

Lookup result for O=C1C[C@@H](O)[C@@H](O)[C@@H]2[C@@H]3C(=O)N(Cc4ccc5c(c4)OCO5)C(=O)[C@@H]3CC[C@@H]12 ; measured composite z-score: 0.229

Please fill in: composite z-score reported for COCCOC(=O)N1C(=O)[C@@]2(c3ccccc31)[C@H](C(N)=O)[C@H]1C(=O)O[C@H](c3ccccc3)[C@H](c3ccccc3)N1[C@@H]2c1ccccc1OCCO = 0.749

* * *

TEST METHOD NOTES: E. coli DRC41 culture turbidity changes, primary screen, E. coli filamentation inducer project, strain DRC41, OD650, 48 h (AID 1152);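 further: E. coli MC1000 strain DRC41 lacking acrAB efflux pump and sulA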
ASSAY SETUP: E. coli DRC41 (acrAB sulA), higher = more signal, called active from +8 up or from −8 down
Activity calls are given as the source filed them.
PROPERTY LABEL: z-score

> print(dat)
                                 cpd.smiles  property.label     observed.value
1  O=C1C2=CC[C@H]3C(=O)N(Cc4ccc5c(c4)OCO5)C(=O)[C@H]3[C@H]2[C@H](O)[C@@H]2O[C@H]12         z-score  0.0561 (inactive)
2  CCN1C(=O)[C@H]2[C@H]3[C@H](O)[C@H](O)CC(=NOCc4ccccc4)[C@@H]3CC[C@H]2C1=O         z-score   0.401 (inactive)
3  CCCNC(=O)OC[C@H]1O[C@H](CCON=C2[C@H]3CCn4c(=O)n(-c5ccccc5)c(=O)n4[C@H]3[C@H](O)[C@@H]3O[C@H]23)C=C[C@@H]1Oc1ccc(OC)cc1         z-score   0.653 (inactive)
4  C=C(/C(=C/C[C@H](OC(C)=O)c1ccc(OCCO)cc1)c1cnc2ccccc2c1)C(C)C         z-score    1.02 (inactive)
5  CCCNC(=O)[C@@H]1c2ccccc2C(=O)N(Cc2ccccc2Cl)[C@H]1c1ccc(CO)cc1         z-score    2.47 (inactive)
6  CC(CCC(=O)OC[C@H]1O[C@H](C#Cc2ccccc2)C=C[C@@H]1Oc1ccc(C)cc1)=NOC[C@@H](O)[C@H]1O[C@@H]2OC(C)(C)O[C@@H]2[C@H]1O         z-score   0.715 (inactive)

Next, consider the following compound.
O=C1C[C@@H](O)[C@@H](O)[C@@H]2[C@@H]3C(=O)N(C4CCCCC4)C(=O)[C@@H]3CC[C@H]12 has a reported z-score of -0.246 (inactive)

* * *

Test system: Neuregulin-1 EGF-like domain
TEST METHOD NOTES: binders of neuregulin-1 EGF-like domain, primary screen, biochemical, small-molecule microarray, 635 nm fluorescence (AID 1081);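 further: binding of the protein to compounds printed on small-molecule microarray slides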
ASSAY SETUP: small-molecule microarray binding, higher = more signal
PROPERTY LABEL: composite z-score
Answer with a number only.

> print(dat)
                                   compound                        system  observed.value
1  COCCCNC(=O)[C@@]1(C)c2ccccc2C(=O)N(Cc2ccc(OC(F)(F)F)cc2)[C@H]1c1ccc(CO)cc1  Neuregulin-1 EGF-like domain            1.45
2  CC(C)=CCCC(C)=CCON=C1[C@H]2CCn3c(=O)n(C)c(=O)n3[C@H]2[C@H](O)[C@@H]2O[C@H]12  Neuregulin-1 EGF-like domain            1.05
3  CC(C)CON=C1C[C@@H](O)[C@@H](O)[C@@H]2[C@@H]3C(=O)N([C@@H](C)c4ccccc4)C(=O)[C@@H]3CC[C@H]12  Neuregulin-1 EGF-like domain             1.1
4  CC(=O)OC[C@H]1O[C@H](CCON=C(C)CCN2CCc3nc(-c4ccccc4)c(-c4ccccc4)cc3C2)C=C[C@@H]1OC(C)=O  Neuregulin-1 EGF-like domain           0.454
5  CCCCCN1CC=CC23O[C@@H]4C=CCOC(=O)[C@@H]4[C@H]2C(=O)N(C(CO)C(C)C)[C@@H]3C1=O (some centres not stated)  Neuregulin-1 EGF-like domain           0.657

Observed composite z-score on Neuregulin-1 EGF-like domain, entry COCC1=C2[C@@H](CCc3ccccc3)OB(O)C[C@@H]2n2c(=O)n(-c3ccccc3)c(=O)n2C1 , equals 0.751

composite z-score on Neuregulin-1 EGF-like domain for CC(C)C[C@@H]1NC(=O)[C@H]2C[C@@H](C(=O)NCCCCCCN(C)C)[C@@H](c3cccc(OCCO)c3)N2C1=O is 0.781

* * *

SYSTEM: Dihydroorotate dehydrogenase (quinone), mitochondrial (Plasmodium falciparum (isolate 3D7))
TEST METHOD NOTES: PfDHODH enzyme inhibitors, primary screen, biochemical, C-terminal His tag, absorbance 600 nm (AID 1175);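 further: recombinant parasite enzyme with a five histidine tag at its C terminus; test concentration not given here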
ASSAY SETUP: DCIP absorbance 600 nm, higher = more signal, called active from +8 up or from −8 down
Assign a class from recorded composite z-score; defined classes: lower range (below -0.3), middle range (-0.3 to below 0.1), upper range (0.1 or more)

Example cases with answers are listed next.
COMPOUND	LABEL VALUE
COCCOC(=O)N1C(=O)[C@@]2(c3cc(C#CCNC(N)=O)ccc31)[C@H](c1ccc(O)cc1)N1[C@H](c3ccccc3)[C@H](c3ccccc3)OC(=O)[C@H]1[C@@H]2C(=O)N1CCCCCCC1	middle range
CO[C@@H]1COC(=O)[C@@H]2CCCN2C(=O)[C@@H](C)COC(=O)[C@H](COCc2ccccc2)NC(=O)CC=C[C@H]1C	middle range
CO[C@@H]1COC(=O)CC=C[C@@H](C)[C@@H]2C=C[C@@H](O)[C@@H](COC(=O)CC=C[C@H]1C)O2	lower range
CO[C@@H]1COC(=O)CCC[C@@H](C)[C@H](OC)COC(=O)CCC[C@H]1C	middle range
CC(CCC(=O)OC[C@H]1O[C@H](C#Cc2ccccc2)C=C[C@@H]1Oc1ccc(C)cc1)=NOC[C@@H](O)[C@H]1O[C@@H]2OC(C)(C)O[C@@H]2[C@H]1O	lower range

Incoming: Into which category would you place CC(C)=C1C(=O)C(c2ccccc2)=C2CN3C(=O)N(CCc4ccccc4)C(=O)[C@]3(Cc3ccc(F)cc3)[C@H]21 ?
Outgoing: middle range

Incoming: The entry to classify is CN(C)c1ccc(C(O)C2C=CC3C(=O)N(c4ccccc4)C(=O)C3N2Nc2ccccc2F)cc1 (centres undefined) ; which class holds it?
Outgoing: upper range

Incoming: // return the class label for CCOC(=O)[C@H](Cc1ccccc1)NC(=O)CCC1CC(OC(=O)NCCc2ccc(F)cc2)CC2(CCCC(COC(=O)NCC(c3ccccc3)c3ccccc3)O2)O1 (some centres undefined)
Outgoing: middle range

Incoming: Input CC(C)N1CC=CC23O[C@@H]4C=CCCOC(=O)C4[C@H]2C(=O)N(CCCCCCO)[C@@H]3C1=O (some centres undefined) ; output its category
Outgoing: middle range

Incoming: Quick check: band for Cn1cccc1C(O)C1C=CC2C(=O)NC(=O)C2N1Nc1ccccn1 (centres undefined)
Outgoing: upper range

Incoming: Band for the recorded composite z-score of CC(C)CON=C1C[C@@H](O)[C@@H](O)[C@@H]2[C@@H]3C(=O)N(C[C@@H]4CCCO4)C(=O)[C@@H]3CC[C@H]12 ?
Outgoing: lower range

Incoming: Would you mind sorting O=C1CCCC2OC12C(O)CCc1ccccc1 (centres undefined) into the appropriate category?
Outgoing: middle range

Incoming: Into which bin does this compound go? O=C1[C@H]2[C@H]3[C@H](O)[C@H](O)CC(=NO[C@@H]4O[C@H](CO)[C@@H](O)[C@H](O)[C@H]4O)[C@@H]3CC[C@H]2C(=O)N1Cc1ccccc1
Outgoing: upper range

Incoming: Exercise: read the entry O=C1C[C@@H](O)[C@@H](O)[C@@H]2[C@@H]3C(=O)N(Cc4ccc5c(c4)OCO5)C(=O)[C@@H]3CC[C@@H]12 and state which class it falls under.
Outgoing: upper range

Incoming: Which class is correct for the following compound? COC(=O)[C@@]1(Cc2ccc(OC)cc2)[C@H]2c3cc(C(=O)N4CCCC4)n(Cc4cc(F)c(F)c(F)c4)c3C[C@H]2CN1C(=O)c1ccccc1
Outgoing: upper range

Incoming: Into which category would you place CC(C)NC(=O)[C@@H]1c2ccccc2C(=O)N(CC23CC4CC(CC(C4)C2)C3)[C@H]1c1ccc(CO)cc1 ?
Outgoing: upper range

Incoming: Band assignment needed for N#Cc1ccc(NN2C(C(O)c3cc(C(F)(F)F)cc(C(F)(F)F)c3)C=CC3C(=O)N(c4ccccc4)C(=O)C32)cc1 (centres undefined) please.
Outgoing: upper range

Incoming: Returns: class label. Input: CCN1C(=O)[C@H]2[C@H]3[C@H](O)[C@H](O)CC(=NOCc4ccccc4)[C@@H]3CC[C@H]2C1=O
Outgoing: lower range

Incoming: Which category fits this record: CN1C(=O)C2C(C1=O)C1C=C(CCCO)C2C(c2ccc(CN3CCCC3)cc2)N1C (centres undefined)
Outgoing: lower range

Incoming: Determine which band this compound sits in: CN1C(=O)C2C=CC(C(O)C(c3ccccc3)c3ccccc3)N(NC(=O)OC(C)(C)C)C2C1=O (centres undefined)
Outgoing: lower range

Incoming: Band for the recorded composite z-score of CCc1cc2c(nc1CC)CCN(CCC(C)=NOC[C@@H](O)[C@H]1O[C@@H]3OC(C)(C)O[C@@H]3[C@H]1O)C2 ?
Outgoing: lower range

Incoming: GET /class?item= COc1ccc(O[C@H]2C=C[C@@H](c3ccccc3)O[C@@H]2COC(=O)CCC(C)=NO[C@H](C)c2cn([C@@H]3COC[C@H]3O)nn2)cc1
Outgoing: lower range

Incoming: Sort CC[C@@H](c1ccccc1)n1c(=O)n2n(c1=O)[C@H]1[C@H](O)[C@@H]3O[C@@H]3C(=NOCC=C(C)CCC=C(C)C)[C@H]1CC2 into one of the categories.
Outgoing: middle range

Incoming: Could you place COc1cccc([C@H]2Oc3ccc(OC)cc3C(=NO[C@H](C)c3cn([C@@H]4COC[C@H]4O)nn3)[C@@H]2O)c1 in its proper category? Many thanks.
Outgoing: lower range

Incoming: Input COC(=O)[C@@H]1CC[C@H](C)[C@@H](c2ccc(C)cc2)N1C(=O)c1ccc(C=NOC[C@@H](O)COCc2ccco2)cc1 ; output its category
Outgoing: upper range

Incoming: Field: class (composite z-score) — entry: C[C@@H](c1ccccc1)N1C(=O)[C@H]2[C@H]3[C@H](O)[C@H](O)CC(=NNC(=O)OCc4ccccc4)[C@H]3CC[C@H]2C1=O
Outgoing: upper range

Incoming: Kindly state the category for this compound: C=CC[C@@H]1C=C[C@H](ON=C[C@@H](OC)[C@H](C)C=CCC(=O)OC)[C@@H](CO)O1
Outgoing: upper range
